- Measured On: human histamine H4 receptor (Homo sapiens, UniProt Q9H3N8)
- Construct: expressed in transfected cells; host or cells: SK-N-MC cells or COS7 cells, transiently transfected; cell membranes used
- Assay Name: Binding Assay on Recombinant Human Histamine H4 Receptor
- Protocol Conditions: competition binding with 3H-histamine (5 nM), membranes of SK-N-MC or COS7 cells expressing human H4 receptor; Cheng-Prusoff, KD 5 nM; average of results obtained; read-out: Ki
pKi: −log10 of the molar value. Counter-ions that a name gives are not always drawn.
Quantity Measured: pKi

Below are worked cases with known answers.
Nc1nc(N2CCCNCC2)c2oc3c(Cl)cc(Cl)cc3c2n1 [Example 32, trifluoroacetic acid salt]
6.80
Nc1nc(N2CCNCC2)c2oc3ccccc3c2n1 [Example 23, trifluoroacetic acid salt]
7.68
CN(CCN)c1nc(N)nc2c1oc1ccc(Cl)cc12 [Example 96, trifluoroacetic acid salt]
8.55
CN[C@@H]1CCN(c2nc(N)nc3c2sc2cc(Br)ccc23)C1 [Example 56, trifluoroacetic acid salt]
7.60
CNC1CCN(c2nc(N)nc3c2oc2ccc(Cl)cc23)C1 (centres unmarked)
9.07

1. Nc1nc(N2CCNCC2)c2oc3ccc(Cl)cc3c2n1 [Example 14, trifluoroacetic acid salt]
2. Nc1nc(N2CCNCC2)c2oc3cccc(C(F)(F)F)c3c2n1 [Example 90, citrate salt]
3. CN[C@@H]1CCN(c2nc(N)nc3c2oc2ccccc23)C1
4. CN1CCN(c2nc(NCCO)nc3c2oc2ccccc23)CC1
5. CN1CCN(c2nc(N)nc3c2oc2ccc(Cl)cc23)CC1
Provide the items ranked by increasing pKi. Write out the labels following the order that was asked for.
2, 4, 3, 1, 5
(2: 6.92, 4: 7.17, 3: 8.47, 1: 8.96, 5: 9.85)

I. CN1CCC(N(C)c2nc(N)nc3c2oc2ccc(F)cc23)C1 (centres unmarked) [Example 41, trifluoroacetic acid salt]
II. CN1CCN(c2nc(NCCCN)nc3c2oc2ccc(Cl)cc23)CC1
I need your help: which of the pair I , II has higher pKi? // output: label of the selected item
I
(I: 6.96, II: 6.52)

Data origin, for the record: patent US8030321B2
